// values below are reported kon
Target: T1, canine NGF tagged at the C-terminus with the Flag tag (canine, UniProt A0A8I3PYI3 122-241)
T1 construct: mature; Expressed with baculovirus technology; also called feline NGF (processed form identical)
T1 sequence (A0A8I3PYI3 entry or part of it): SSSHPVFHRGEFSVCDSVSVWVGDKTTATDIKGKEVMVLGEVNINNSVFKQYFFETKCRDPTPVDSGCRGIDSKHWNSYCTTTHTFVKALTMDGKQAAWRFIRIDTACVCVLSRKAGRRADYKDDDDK
Experiment: SPR off-rate screen, Fab-SASA on BSA chip
REPORTED METRIC: kon (M⁻¹ s⁻¹)

# BINDER, UNIT ABBREVIATION, NUMBER
data = [
    ("felinized clone 101 Fab-SASA variant N53K (VL) (Fab, V domains shown, not shown: small tags and cut ends) VH: DVQLVESGGDLVKPGGSLRLTCVASGLSLTSSSMSWVRQAPGKGLQWVSTIYSNGGTYYTDSVKGRFTISKDNAENTLYLQMNNLKTEDTATYYCASIYYYDADYLHWYFDFWGQGALVTVSS VL: EIQMTQSPTSLSASVGDRVTITCRASEGISNNLSWYQQTPGKAPKLLIYATSKLHSGVPSRFSGSGSGTDFTLTISSLQPEDFATYYCQQGYKWPLTFGGGTKLEITR", "M⁻¹ s⁻¹", 292000),
    ("felinized clone 101 Fab-SASA variant S97T (VH) (Fab, V domains shown, not shown: small tags and cut ends, Fab-SASA in conditioned medium) VH: DVQLVESGGDLVKPGGSLRLTCVASGLSLTSSSMSWVRQAPGKGLQWVSTIYSNGGTYYTDSVKGRFTISKDNAENTLYLQMNNLKTEDTATYYCATIYYYDADYLHWYFDFWGQGALVTVSS VL: EIQMTQSPTSLSASVGDRVTITCRASEGISNNLSWYQQTPGKAPKLLIYATSNLHSGVPSRFSGSGSGTDFTLTISSLQPEDFATYYCQQGYKWPLTFGGGTKLEITR", "M⁻¹ s⁻¹", 380000),
    ("felinized clone 101 Fab-SASA variant S56T (VL) (Fab, V domains shown, not shown: small tags and cut ends) VH: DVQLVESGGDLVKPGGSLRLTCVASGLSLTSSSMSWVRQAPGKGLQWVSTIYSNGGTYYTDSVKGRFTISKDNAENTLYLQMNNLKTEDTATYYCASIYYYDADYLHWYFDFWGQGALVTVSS VL: EIQMTQSPTSLSASVGDRVTITCRASEGISNNLSWYQQTPGKAPKLLIYATSNLHTGVPSRFSGSGSGTDFTLTISSLQPEDFATYYCQQGYKWPLTFGGGTKLEITR", "M⁻¹ s⁻¹", 358000),
    ("felinized clone 101 Fab-SASA variant T60D (VH) (Fab, V domains shown, not shown: small tags and cut ends) VH: DVQLVESGGDLVKPGGSLRLTCVASGLSLTSSSMSWVRQAPGKGLQWVSTIYSNGGTYYDDSVKGRFTISKDNAENTLYLQMNNLKTEDTATYYCASIYYYDADYLHWYFDFWGQGALVTVSS VL: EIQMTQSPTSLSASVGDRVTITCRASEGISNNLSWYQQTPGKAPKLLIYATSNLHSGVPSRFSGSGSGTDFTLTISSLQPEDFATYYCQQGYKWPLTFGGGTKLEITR", "M⁻¹ s⁻¹", 294000),
    ("felinized clone 101 Fab-SASA variant S30P (VL) (Fab, V domains shown, not shown: small tags and cut ends) VH: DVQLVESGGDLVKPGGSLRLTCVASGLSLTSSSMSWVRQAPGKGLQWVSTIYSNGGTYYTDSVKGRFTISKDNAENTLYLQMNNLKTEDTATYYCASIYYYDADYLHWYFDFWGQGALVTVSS VL: EIQMTQSPTSLSASVGDRVTITCRASEGIPNNLSWYQQTPGKAPKLLIYATSNLHSGVPSRFSGSGSGTDFTLTISSLQPEDFATYYCQQGYKWPLTFGGGTKLEITR", "M⁻¹ s⁻¹", 262000),
    ("felinized clone 101 Fab-SASA variant S97M (VH) (Fab, V domains shown, not shown: small tags and cut ends) VH: DVQLVESGGDLVKPGGSLRLTCVASGLSLTSSSMSWVRQAPGKGLQWVSTIYSNGGTYYTDSVKGRFTISKDNAENTLYLQMNNLKTEDTATYYCAMIYYYDADYLHWYFDFWGQGALVTVSS VL: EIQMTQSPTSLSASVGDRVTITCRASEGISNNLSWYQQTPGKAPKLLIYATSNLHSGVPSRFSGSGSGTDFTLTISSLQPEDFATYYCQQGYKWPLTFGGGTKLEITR", "M⁻¹ s⁻¹", 266000),
    ("felinized clone 101 Fab-SASA variant H55M (VL) (Fab, V domains shown, not shown: small tags and cut ends) VH: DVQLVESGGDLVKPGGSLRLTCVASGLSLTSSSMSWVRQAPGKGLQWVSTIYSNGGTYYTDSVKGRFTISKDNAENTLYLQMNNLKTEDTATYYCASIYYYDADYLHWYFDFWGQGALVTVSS VL: EIQMTQSPTSLSASVGDRVTITCRASEGISNNLSWYQQTPGKAPKLLIYATSNLMSGVPSRFSGSGSGTDFTLTISSLQPEDFATYYCQQGYKWPLTFGGGTKLEITR", "M⁻¹ s⁻¹", 333000),
    ("felinized clone 101 Fab-SASA variant S97Q (VH) (Fab, V domains shown, not shown: small tags and cut ends, Fab-SASA in conditioned medium) VH: DVQLVESGGDLVKPGGSLRLTCVASGLSLTSSSMSWVRQAPGKGLQWVSTIYSNGGTYYTDSVKGRFTISKDNAENTLYLQMNNLKTEDTATYYCAQIYYYDADYLHWYFDFWGQGALVTVSS VL: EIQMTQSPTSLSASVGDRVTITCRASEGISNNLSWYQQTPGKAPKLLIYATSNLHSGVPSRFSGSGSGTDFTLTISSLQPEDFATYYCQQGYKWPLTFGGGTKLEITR", "M⁻¹ s⁻¹", 297000),
    ("felinized clone 101 Fab-SASA variant S53P (VH) (Fab, V domains shown, not shown: small tags and cut ends) VH: DVQLVESGGDLVKPGGSLRLTCVASGLSLTSSSMSWVRQAPGKGLQWVSTIYPNGGTYYTDSVKGRFTISKDNAENTLYLQMNNLKTEDTATYYCASIYYYDADYLHWYFDFWGQGALVTVSS VL: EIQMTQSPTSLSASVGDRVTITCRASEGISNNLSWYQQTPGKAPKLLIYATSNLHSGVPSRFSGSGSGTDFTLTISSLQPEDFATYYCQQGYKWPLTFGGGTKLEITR", "M⁻¹ s⁻¹", 323000),
    ("felinized clone 101 Fab-SASA variant F112N (VH) (Fab, V domains shown, not shown: small tags and cut ends) VH: DVQLVESGGDLVKPGGSLRLTCVASGLSLTSSSMSWVRQAPGKGLQWVSTIYSNGGTYYTDSVKGRFTISKDNAENTLYLQMNNLKTEDTATYYCASIYYYDADYLHWYFDNWGQGALVTVSS VL: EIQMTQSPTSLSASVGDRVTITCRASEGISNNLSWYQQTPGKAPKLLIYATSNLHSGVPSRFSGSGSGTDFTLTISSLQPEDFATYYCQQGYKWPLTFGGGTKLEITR", "M⁻¹ s⁻¹", 347000),
]
